# MEASURED_ON: T1, PKC-α (purified isoform) (Homo sapiens (Human), UniProt P17252 2-672)
# T1 construct: also called purified PKC-alpha; commercially purified PKC-alpha
# TEST: competitive ELISA, coated purified PKC-α, vs anti-PKC α (SC-208); PRE 200 µM
ASSAY_METRIC: relative binding capacity (100-%n, DMSO subtracted) (%)

>>> df
                                     binder   val
0  Ac-RDAQNLIGISI-NH2 (also called peptide PRE 11) [PRE 11]  13.3
1  Ac-KDAQNLI-NH2 (Ac-KDAQNLI-NH2; also called peptide PRE 12) [PRE 12]     0
2  Ac-ISIGILQNADK-NH2 (also called peptide PRE 7) [PRE 7]  6.59
3  Ac-RDAQNLI-NH2 (Ac-RDAQNLI-NH2; also called peptide PRE 13) [PRE 13]     0
